The origin of these recorded values is patent US20250340623A1.

Record form. Attribute: koff. Fill in for each entry.
Target: alpha-synuclein fibrils, P37840
Test: SPR, captured mAb
Settings: remark: other sources report otherwise
Answers are plain numbers, in s⁻¹.

Known results for binders:
• ACI-7079-2603C1-Ab3 (antibody, V domains shown) VH: QVQLQQPGADLVKPGASVKLSCKASGYTFTSYWMQWTKQRPGQGLEWIGEIDPSDSYANYNQKFKGKATLTVDKYSSTAYMQLNSLTSEDSAVYYCALYDGPSYWGQGTLVTVS VL: ENVLTQSPAIMSASPGEKVTMTCSAGSSVSYMHWFQQKSSTSPKLWIYDTSKLPSGVPGRFSGSGSGNSYSLTISSMEAEDVATYYCFQGSGYPYTFGGGTKLEIK = 51.7
• ACI-7079-2507B3-Ab1 (antibody, V domains shown) VH: EVQLVESGGGLVQPKGSLKVSCAASGFTFKTYAMHWVRQAPGKGLEWVARIRSENSNFAKYYADSVKDRFTISRDDSQSMLYLQMHTLKTEDTAIYYCVRGYNGSSLDYWGQGTTLTVSS VL: QIVLTQSPAIMSAFPGERVTMTCSASSSVNYMHWYQQKSGTSPKRWIYDTSKLASGVPARFSGGGSGTSYSLTISNMEAEDAATYYCQQWRSNPPTFGGGTKLEIK = 0.000668

Switching to the query record.
Task: For ACI-7088-4301H3-Ab2 (antibody, V domains shown) VH: EVQLQQSGPELVKPGASVKISCKASGYTFADYFMNWVKQSHGKSLEWIGDINPNNGGTTYNQKFKGKATLTVDKSSNTAYMELRSLTSEDSAVYYCARGRNYAMDYWGQGTSVTVSS VL: DIVMSQSPSSLAVSAGEKVTMSCKSSQSLLNSRTRKNYLAWYQQKPGQSPKLLIYSASTRESGVPDRFTGSGFGTDFTLTISSVQAEDLAVYYCKQSYDLWTFGGGTKLEIK , what is its reported koff?
Result: 0.000898
